# ASSAY_REMARKS: probe aWnt5a binding to arrayed compounds – biochemical, biotinylated probe, 635/667 nm fluorescence, primary screen (AID 1113);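 note: score merges 667 nm fluorescence intensity with signal-to-noise per printed feature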
# RUN_PARAMETERS: small-molecule microarray, higher = more signal
PARAMETER: composite z-score
// no unit, no text: just the number

Some compounds with recorded composite z-score:
| STRUCTURE_SMILES_STRING | composite z-score |
| --- | --- |
| C=C(CCCC)/C(=C/C[C@H](OC(=O)c1ccncc1)c1ccc(OCCO)cc1)c1cnc2ccccc2c1 | -0.129 |
| COc1ccc([Si](C)(C)[C@H]2[C@H](CC(=O)N3Cc4ccccc4C[C@H]3CO)O[C@@]3(C(=O)N(c4ccccc4)c4ccccc43)[C@@H]2C)cc1 | 0.127 |
| CC(C)NC(=O)[C@@]1(c2ccc([N+](=O)[O-])cc2)CC(=O)N(CC23CC4CC(CC(C4)C2)C3)[C@@H]1c1ccc(CO)cc1 | 0.289 |

Lab book: composite z-score of COCCCNC(=O)[C@@]1(CCS(=O)(=O)c2ccccc2)COC(c2ccc(OCCCO)cc2)=N1 noted as 0.0919
